Target: T1, EBOV soluble GP (sGP) (Ebola virus (EBOV), UniProt P60170 33-324)
T1 chain: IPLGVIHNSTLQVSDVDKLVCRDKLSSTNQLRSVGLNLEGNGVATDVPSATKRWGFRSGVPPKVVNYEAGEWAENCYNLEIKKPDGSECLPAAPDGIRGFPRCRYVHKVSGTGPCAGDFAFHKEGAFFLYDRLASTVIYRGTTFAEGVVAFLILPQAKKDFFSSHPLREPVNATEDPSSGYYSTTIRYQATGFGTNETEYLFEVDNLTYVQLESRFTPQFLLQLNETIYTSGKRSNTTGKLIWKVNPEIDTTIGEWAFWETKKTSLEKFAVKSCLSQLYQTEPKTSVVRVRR
Assay: ELISA
Recorded measurements of EC50, one per entry
Numbers only; they are read as µg/mL.

BINDER: FVM01P (antibody, V domains shown) VH: QVQLQESGPGLVKPSETLSLTCTVSGASISNYRWNWIRQPPGKGLEWIGEINGYSGSTNYNPSLKSRVTISKDASKNQFSLKLTSVTAADTAVYYCPIIGGFTLEWFDVWGPGVLVTVSS VL: DVVLTQSPSSLSASVGDRVTITCRASQGIRNYLNWYQQKPRKAPKLLIYAASSLQSGVPSRFSGSGSGTEFTLTISSLQAEDFATYYCLQGYRTPFTFGPGTKLDIKR
UNIT ANNOTATION: µg/mL
EC50: 0.005

Task: Need EC50, item FVM20 (antibody, V domains shown) VH: EVQLVESGAEVKRPGESLTISCKTSGYSFTGSWISWVRQMPGKGLEWLGSIYPGDSETKYNPSFQGHVTISADKSVTTTYLKWSSLKASDTATYYCVKGSETWGQGVLVTVSS VL: NFMLTQSASLSASPGASASLTCTFSGGINVAGYHIFWYQQNPGSPPRYLLRYKSDSEKDQGSGVPSRFSGSKDASANTGILRISGLQSEDEADYYCAIGHSSGWIFGGGTRLTVL
Output: 0.023
